experiment: amyloid nucleation score (Sup35N fusion, yeast selection) (log enrichment); library NNK1; higher = more nucleation; inactive = no reads after selection;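 note: zero at mode of non-aggregating sequences after 7 days selection at 30°C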
I'd be grateful if you could share measured amyloid nucleation score for these entries.
Answer as a number with no unit attached.

Which amyloid nucleation score value is on record for ASSLDLFNWASVWFFNYIGA ?
-0.887

Same again, this time with GFFGFIGRVMVIGRWREVPG
-0.265

Same again, this time with FIHAMAMCILGEHSI
0.686

Same again, this time with CGGYSTTCSLTWEILASNRL
0.675

Same again, this time with VKATLSFSQFLHVVSYWGF
-0.342

Same again, this time with IEAYVINGKLDWALWFRGDE
-0.407

Same again, this time with YKANCVETLSWSFGHNFFLR
-0.481

Same again, this time with KCRGCSMMRAS
1.84

Same again, this time with TKGYLWPRKQTAFVWIAMCG
-0.187

Same again, this time with HVFSLKRPDGCRRR
0.711

Same again, this time with YWICRDTGSYDFCMMGMGKA
0.335

Same again, this time with LYAIYTAFNRVSSYSNMPVM
-0.599

Same again, this time with YVDDGMCSAICYSTVNNMSN
8.67

Same again, this time with LCALSEVLVLCDSY
0.29

Same again, this time with YKSSILPTEFGFACKPWGHL
0.3

Same again, this time with VMDGYVSGCFLWRCCNRNRS
2.92

Same again, this time with SVDIAINALS
0.492

Same again, this time with SYARTFMDLHNGSRH
-0.013

Same again, this time with VIAILLDGHLKVFTTLGYNR
-1.59

Same again, this time with RRYRSWGGV
-0.267

Same again, this time with IRYCFCKIK
0.312

Same again, this time with VMQFGVSGNAGC
0.778

Same again, this time with SFVFGHIVKK
2.72

Same again, this time with VQNDTTLHVIFILGRAW
2.44

Same again, this time with IFSHIPCLITFSNDQ
2.13

Same again, this time with HSQLLGMPFTSSVDS
0.635

Same again, this time with STGLACSSWQAFIYLCLLYY
-0.516

Same again, this time with VYIYRSVPNTAPAPMIEKKD
-0.048

Same again, this time with NGIMKIEKYG
0.312

Same again, this time with VEVCRTNWLVEL
1.09

Same again, this time with YFYDTWGA
-0.235

Same again, this time with GIRPNFTVRFGGSWSQRNDR
0.749

Same again, this time with AVEGCVFCWIRCVIRFLV
-0.642

Same again, this time with LCGSGGLMCRQGHYAEMGGC
-0.287

Same again, this time with SLDLMCGHQPRSCMVLDSRV
0.983

----------
I'd be grateful if you could share measured amyloid nucleation score for these entries.
test: amyloid nucleation score (Sup35N fusion, yeast selection) (log enrichment); library NNK3; higher = more nucleation; inactive = no reads after selection
Answer as a number with no unit attached.

Which amyloid nucleation score value is on record for SIVRIFIIN ?
2.27

Same again, this time with SIFLMSFRA
1.41

Same again, this time with YIILCSIFSYWENMGHI
2.78

Same again, this time with RLLFMIPIMIVMNQHPTMNV
1.01

----------
experiment: amyloid nucleation score (Sup35N fusion, yeast selection) (log enrichment); library NNK2; higher = more nucleation; inactive = no reads after selection
Readout Name: amyloid nucleation score

[[record]]
substance = "ASVILTEPFMQGFSIYVGAG"
readout_name = "amyloid nucleation score"
value_measured = -0.746

[[record]]
substance = "LYSTRRCHVRELVPLLGARS"
readout_name = "amyloid nucleation score"
value_measured = 0.362

[[record]]
substance = "SMATTE"
readout_name = "amyloid nucleation score"
value_measured = 8.38

[[record]]
substance = "EPFSNEWWLMGVRPHLICRV"
readout_name = "amyloid nucleation score"
value_measured = 0

[[record]]
substance = "VMVAYSLLGSRSSILLW"
readout_name = "amyloid nucleation score"
value_measured = 0.021

[[record]]
substance = "IFCCIRFLV"
readout_name = "amyloid nucleation score"
value_measured = 6.55

[[record]]
substance = "HHRMSYHY"
readout_name = "amyloid nucleation score"
value_measured = 1.72

[[record]]
substance = "RGKSKYSRLGWPGNLEHKGL"
readout_name = "amyloid nucleation score"
value_measured = 0.388


Which amyloid nucleation score value is on record for RRAILWPNGAN ?
0.097

Same again, this time with NIQPEK
-0.587

Same again, this time with KINMLCFSWGSCVGGCRKVC
7.06

Same again, this time with LAGLALITIIDIFGDNGRMI
3.2
